target: wildtype LRRK2 (Homo sapiens); construct: expressed in transfected cells; host or cells: HEK293 (ATCC CRL-1573), transient transfection, mammalian expression vector with ubiquitin promoter; experiment: LRRK2 degradation assay, HiBit-tagged wildtype LRRK2 expressed from plasmid in HEK293 cells (Nano-Glo Dual-Luciferase); type: cell-based; details: HiBit-tagged wildtype LRRK2 in HEK293 cells, 24 hours; read-out: **WT Dmax (%)
Sequence (Q5S007 whole entry): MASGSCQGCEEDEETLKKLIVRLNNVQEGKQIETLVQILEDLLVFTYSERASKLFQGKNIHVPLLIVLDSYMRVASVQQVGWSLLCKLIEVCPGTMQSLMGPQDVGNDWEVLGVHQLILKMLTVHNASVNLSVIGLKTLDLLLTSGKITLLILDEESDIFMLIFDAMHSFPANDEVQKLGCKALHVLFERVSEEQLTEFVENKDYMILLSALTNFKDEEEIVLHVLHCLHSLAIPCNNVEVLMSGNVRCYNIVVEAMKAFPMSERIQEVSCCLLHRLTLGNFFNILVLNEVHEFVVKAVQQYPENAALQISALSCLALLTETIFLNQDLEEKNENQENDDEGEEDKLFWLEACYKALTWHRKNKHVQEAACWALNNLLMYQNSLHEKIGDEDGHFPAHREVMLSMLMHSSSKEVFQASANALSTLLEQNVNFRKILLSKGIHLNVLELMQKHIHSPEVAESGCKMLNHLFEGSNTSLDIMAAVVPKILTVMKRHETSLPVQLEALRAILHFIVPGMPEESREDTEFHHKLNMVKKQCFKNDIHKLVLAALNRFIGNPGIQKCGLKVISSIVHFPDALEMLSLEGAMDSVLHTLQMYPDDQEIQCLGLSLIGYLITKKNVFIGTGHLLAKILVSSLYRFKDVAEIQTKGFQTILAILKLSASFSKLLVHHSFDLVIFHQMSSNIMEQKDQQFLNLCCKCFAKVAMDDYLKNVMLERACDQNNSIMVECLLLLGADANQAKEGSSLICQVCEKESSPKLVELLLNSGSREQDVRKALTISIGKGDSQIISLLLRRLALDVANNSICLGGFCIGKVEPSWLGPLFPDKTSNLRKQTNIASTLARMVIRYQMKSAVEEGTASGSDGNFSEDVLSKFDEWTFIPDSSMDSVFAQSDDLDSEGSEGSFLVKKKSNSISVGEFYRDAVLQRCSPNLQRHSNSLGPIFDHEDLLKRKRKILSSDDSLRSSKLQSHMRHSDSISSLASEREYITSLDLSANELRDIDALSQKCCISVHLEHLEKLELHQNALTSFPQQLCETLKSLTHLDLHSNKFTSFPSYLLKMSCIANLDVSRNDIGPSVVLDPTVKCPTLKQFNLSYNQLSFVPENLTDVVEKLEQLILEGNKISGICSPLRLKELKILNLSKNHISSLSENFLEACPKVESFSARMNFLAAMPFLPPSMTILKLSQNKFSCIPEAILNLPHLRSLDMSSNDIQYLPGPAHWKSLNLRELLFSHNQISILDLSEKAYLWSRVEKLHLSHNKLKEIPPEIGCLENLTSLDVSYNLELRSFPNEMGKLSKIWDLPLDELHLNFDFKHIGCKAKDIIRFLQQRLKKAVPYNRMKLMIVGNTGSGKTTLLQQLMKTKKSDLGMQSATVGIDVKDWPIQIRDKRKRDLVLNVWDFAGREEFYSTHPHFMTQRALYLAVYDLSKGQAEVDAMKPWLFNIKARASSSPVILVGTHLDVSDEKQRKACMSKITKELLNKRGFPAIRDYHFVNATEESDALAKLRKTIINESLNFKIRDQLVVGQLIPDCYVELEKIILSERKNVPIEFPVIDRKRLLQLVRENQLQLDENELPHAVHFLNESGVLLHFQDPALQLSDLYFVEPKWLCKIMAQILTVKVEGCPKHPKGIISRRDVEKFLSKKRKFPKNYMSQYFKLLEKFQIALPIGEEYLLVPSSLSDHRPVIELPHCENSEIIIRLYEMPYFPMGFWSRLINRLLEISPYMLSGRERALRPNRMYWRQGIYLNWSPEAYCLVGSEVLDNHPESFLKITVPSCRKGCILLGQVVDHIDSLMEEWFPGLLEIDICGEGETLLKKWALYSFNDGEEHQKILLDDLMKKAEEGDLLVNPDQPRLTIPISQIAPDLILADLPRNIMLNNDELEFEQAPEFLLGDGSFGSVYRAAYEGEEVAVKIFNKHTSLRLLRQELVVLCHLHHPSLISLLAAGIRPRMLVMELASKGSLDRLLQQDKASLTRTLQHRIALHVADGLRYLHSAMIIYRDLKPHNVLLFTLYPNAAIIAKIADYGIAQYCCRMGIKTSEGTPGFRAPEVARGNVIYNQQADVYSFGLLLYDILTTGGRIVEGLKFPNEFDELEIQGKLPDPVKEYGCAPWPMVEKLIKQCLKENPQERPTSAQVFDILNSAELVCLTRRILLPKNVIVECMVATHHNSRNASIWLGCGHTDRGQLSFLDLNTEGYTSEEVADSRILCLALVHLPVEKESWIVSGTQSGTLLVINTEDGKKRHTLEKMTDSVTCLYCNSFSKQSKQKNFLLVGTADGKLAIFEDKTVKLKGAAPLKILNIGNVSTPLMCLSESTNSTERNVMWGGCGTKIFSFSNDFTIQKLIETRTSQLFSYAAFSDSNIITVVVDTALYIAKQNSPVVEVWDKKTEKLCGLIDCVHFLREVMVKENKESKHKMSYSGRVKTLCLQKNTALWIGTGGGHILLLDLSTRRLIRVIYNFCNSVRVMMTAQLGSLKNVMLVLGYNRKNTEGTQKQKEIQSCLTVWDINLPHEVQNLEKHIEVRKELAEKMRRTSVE
Exercise: for every item that follows, state its recorded Dmax.

CC1(Oc2ccc3n[nH]c(-c4cc(N5CCC(CN6CCN(CC7CCN(c8ccc9c(c8)C(=O)N(C8CCC(=O)NC8=O)C9=O)CC7)CC6)CC5)ncn4)c3c2)CC1 (centres unmarked) [Compound 68]: ≥ 70%

I need Dmax for every entry listed below, if you could help.
1. CC1(Oc2ccc3[nH]nc(-c4ccnc(N5CC(CN6CCN(CC7CCN(c8ccc9c(c8)C(=O)N(C8CCC(=O)NC8=O)C9=O)CC7)CC6)C5)c4)c3c2)CC1 (centres unmarked) [Compound 128]
2. CC1(Oc2ccc3[nH]nc(-c4cc(N5CCN(CC6CCN(C(=O)C7CCN(c8ccc9c(c8)C(=O)N(C8CCC(=O)NC8=O)C9=O)CC7)CC6)CC5)ncn4)c3c2)CC1 (centres unmarked) [Compound 90]
3. CC1(Oc2ccc3[nH]nc(-c4ccnc(N5CCN(C[C@H]6CC[C@H](CN7CCN(c8ccc9c(c8)C(=O)N(C8CCC(=O)NC8=O)C9=O)CC7)CC6)CC5)c4)c3c2)CC1 (some centres unmarked) [Compound 102]
4. CC1(Oc2ccc3n[nH]c(-c4cc(N5CCC(CN6CCN(CC7CCN(c8ccc9c(c8)CN(C8CCC(=O)NC8=O)C9=O)CC7)CC6)CC5)ncn4)c3c2)CC1 (centres unmarked) [Compound 112]
5. CC1(Oc2ccc3[nH]nc(-c4cc(N5CCN(CC(F)(F)C6CCN(CC7CCN(c8ccc9c(c8)C(=O)N(C8CCC(=O)NC8=O)C9=O)CC7)CC6)CC5)ncn4)c3c2)CC1 (centres unmarked) [Compound 53]
6. CC1(Oc2ccc3[nH]nc(-c4ccnc(N5CCC(CN6CCN(CC7CCN(c8ccc9c(c8)C(=O)N(C8CCC(=O)NC8=O)C9=O)CC7)CC6)CC5)c4)c3c2)CC1 (centres unmarked) [Compound 78]
7. CC1(Oc2ccc3[nH]nc(-c4cc(N5CCC(CN6CCN(CC7CCN(c8cc9c(cc8F)C(=O)N(C8CCC(=O)NC8=O)C9=O)CC7)CC6)CC5)ncn4)c3c2)CC1 (centres unmarked) [Compound 107]

1. 50 to 70%
2. < 50%
3. < 50%
4. ≥ 70%
5. 50 to 70%
6. 50 to 70%
7. < 50%
